# target-desc: Beta-2 adrenergic receptor (Homo sapiens) (UniProt P07550)
# Sequence (P07550 whole entry, looked up): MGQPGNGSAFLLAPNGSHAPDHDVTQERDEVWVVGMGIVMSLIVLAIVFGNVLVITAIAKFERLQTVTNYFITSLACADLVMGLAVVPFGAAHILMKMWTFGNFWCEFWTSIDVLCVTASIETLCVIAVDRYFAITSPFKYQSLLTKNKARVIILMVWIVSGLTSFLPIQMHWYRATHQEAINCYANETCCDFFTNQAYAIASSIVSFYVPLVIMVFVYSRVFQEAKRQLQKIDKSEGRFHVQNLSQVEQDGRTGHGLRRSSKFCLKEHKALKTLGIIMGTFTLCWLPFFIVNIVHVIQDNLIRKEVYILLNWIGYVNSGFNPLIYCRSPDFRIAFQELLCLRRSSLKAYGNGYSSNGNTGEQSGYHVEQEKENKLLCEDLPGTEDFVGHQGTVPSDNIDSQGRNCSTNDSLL
# assay-overview: Adrenergic beta2 receptor (ADRB2) small molecule agonists, cell-based qHTS assay (AID 1963593);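 also: CHO cells stably overexpressing human ADRB2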
# test-parameters: CHO-ADRB2 cells, cAMP HTRF, 30 min; series mostly up to 92.4 µM
# Source text: National Center for Advancing Translational Sciences [NCATS] Division of Preclinical Innovation [DPI] U.S. Environmental Protection Agency [EPA] National Institutes of Environmental Health Sciences [NIEHS] National Toxicology Program [NTP] U.S. Food and Drug Administration [FDA] Beta adrenergic receptors (Beta-ARs) belong to the G-protein coupled receptor (GPCR) superfamily, includes three subtypes - beta1, beta2, and beta3. […]
Records with an inconclusive call do not appear. Activity calls are given as the source filed them. Calls follow the shape of the full dose curve.
measurement-name: outcome

molecule: CC(C)Oc1cc(-n2nc(C(C)(C)C)oc2=O)c(Cl)cc1Cl
target-desc: Beta-2 adrenergic receptor (Homo sapiens) (UniProt P07550)
endpoint-value: inactive

molecule: CCCSC(=O)Cl
target-desc: Beta-2 adrenergic receptor (Homo sapiens) (UniProt P07550)
endpoint-value: inactive

molecule: CCCC(=O)Cl
target-desc: Beta-2 adrenergic receptor (Homo sapiens) (UniProt P07550)
endpoint-value: inactive

molecule: ClC(Cl)(Cl)Br
target-desc: Beta-2 adrenergic receptor (Homo sapiens) (UniProt P07550)
endpoint-value: inactive

molecule: COP(=S)(OC)SCn1nnc2ccccc2c1=O
target-desc: Beta-2 adrenergic receptor (Homo sapiens) (UniProt P07550)
endpoint-value: inactive

molecule: CNC
target-desc: Beta-2 adrenergic receptor (Homo sapiens) (UniProt P07550)
endpoint-value: inactive

molecule: C=CCSSCC=C
target-desc: Beta-2 adrenergic receptor (Homo sapiens) (UniProt P07550)
endpoint-value: inactive

molecule: CCOP(=S)(OCC)OP(=S)(OCC)OCC
target-desc: Beta-2 adrenergic receptor (Homo sapiens) (UniProt P07550)
endpoint-value: inactive

molecule: ClCc1ccccn1
target-desc: Beta-2 adrenergic receptor (Homo sapiens) (UniProt P07550)
endpoint-value: inactive

molecule: CCN(CC)C(=O)/C(Cl)=C(\C)OP(=O)(OC)OC
target-desc: Beta-2 adrenergic receptor (Homo sapiens) (UniProt P07550)
endpoint-value: inactive

molecule: BrCCBr
target-desc: Beta-2 adrenergic receptor (Homo sapiens) (UniProt P07550)
endpoint-value: inactive

molecule: C1CN2CCC1CC2
target-desc: Beta-2 adrenergic receptor (Homo sapiens) (UniProt P07550)
endpoint-value: inactive

molecule: NCc1cccnc1
target-desc: Beta-2 adrenergic receptor (Homo sapiens) (UniProt P07550)
endpoint-value: inactive

molecule: Nc1ccc(Cc2ccc(N)cc2)cc1
target-desc: Beta-2 adrenergic receptor (Homo sapiens) (UniProt P07550)
endpoint-value: inactive

molecule: CC(C)COC(=O)c1ccccc1C(=O)OCC(C)C
target-desc: Beta-2 adrenergic receptor (Homo sapiens) (UniProt P07550)
endpoint-value: inactive

molecule: CN(C)C(=O)Nc1cccc(C(F)(F)F)c1
target-desc: Beta-2 adrenergic receptor (Homo sapiens) (UniProt P07550)
endpoint-value: inactive

molecule: COC(=O)NC(=S)Nc1ccccc1NC(=S)NC(=O)OC
target-desc: Beta-2 adrenergic receptor (Homo sapiens) (UniProt P07550)
endpoint-value: inactive

molecule: CC(C(=O)c1ccccc1)N(C)C (configuration not stated)
target-desc: Beta-2 adrenergic receptor (Homo sapiens) (UniProt P07550)
endpoint-value: inactive

molecule: Cl
target-desc: Beta-2 adrenergic receptor (Homo sapiens) (UniProt P07550)
endpoint-value: inactive

molecule: N#CCCCCC#N
target-desc: Beta-2 adrenergic receptor (Homo sapiens) (UniProt P07550)
endpoint-value: inactive

molecule: CCC1(c2ccc(N)cc2)CCC(=O)NC1=O (configuration not stated)
target-desc: Beta-2 adrenergic receptor (Homo sapiens) (UniProt P07550)
endpoint-value: inactive

molecule: O=S(=O)(c1ccccc1)c1ccccc1
target-desc: Beta-2 adrenergic receptor (Homo sapiens) (UniProt P07550)
endpoint-value: inactive

molecule: [P]#[In]
target-desc: Beta-2 adrenergic receptor (Homo sapiens) (UniProt P07550)
endpoint-value: inactive

molecule: [O-][Cl+2]([O-])O
target-desc: Beta-2 adrenergic receptor (Homo sapiens) (UniProt P07550)
endpoint-value: inactive

molecule: CCCCOCCOC(C)=O
target-desc: Beta-2 adrenergic receptor (Homo sapiens) (UniProt P07550)
endpoint-value: inactive

molecule: CCOC(=O)c1cncn1C(C)c1ccccc1 (configuration not stated)
target-desc: Beta-2 adrenergic receptor (Homo sapiens) (UniProt P07550)
endpoint-value: inactive

molecule: CCN(CC)C1CCCCC1
target-desc: Beta-2 adrenergic receptor (Homo sapiens) (UniProt P07550)
endpoint-value: inactive

molecule: CCC[N+]1(C)CCCCC1
target-desc: Beta-2 adrenergic receptor (Homo sapiens) (UniProt P07550)
endpoint-value: inactive

molecule: CCCCc1c(C)nc(NCC)[nH]c1=O
target-desc: Beta-2 adrenergic receptor (Homo sapiens) (UniProt P07550)
endpoint-value: inactive

molecule: Sc1ccccc1Cl
target-desc: Beta-2 adrenergic receptor (Homo sapiens) (UniProt P07550)
endpoint-value: inactive

molecule: c1nc[nH]n1
target-desc: Beta-2 adrenergic receptor (Homo sapiens) (UniProt P07550)
endpoint-value: inactive

molecule: COC(C)(C)CCCC(C)C/C=C/C(C)=C/C(=O)OC(C)C (configuration not stated)
target-desc: Beta-2 adrenergic receptor (Homo sapiens) (UniProt P07550)
endpoint-value: inactive

molecule: C=CC(C)=O
target-desc: Beta-2 adrenergic receptor (Homo sapiens) (UniProt P07550)
endpoint-value: inactive

molecule: c1ccc(OP(Oc2ccccc2)Oc2ccccc2)cc1
target-desc: Beta-2 adrenergic receptor (Homo sapiens) (UniProt P07550)
endpoint-value: inactive

molecule: COc1cc(OC)nc(NC(=O)NS(=O)(=O)c2ncccc2C(=O)N(C)C)n1
target-desc: Beta-2 adrenergic receptor (Homo sapiens) (UniProt P07550)
endpoint-value: inactive

molecule: CCCCNC(=O)n1c(NC(=O)OC)nc2ccccc21
target-desc: Beta-2 adrenergic receptor (Homo sapiens) (UniProt P07550)
endpoint-value: inactive

molecule: COc1ccc(C(O)(c2cncnc2)C2CC2)cc1 (configuration not stated)
target-desc: Beta-2 adrenergic receptor (Homo sapiens) (UniProt P07550)
endpoint-value: inactive

molecule: CCNc1nc(Cl)nc(NC(C)(C)C#N)n1
target-desc: Beta-2 adrenergic receptor (Homo sapiens) (UniProt P07550)
endpoint-value: inactive

molecule: O=C(O)C1C(C(=O)O)C2(Cl)C(Cl)=C(Cl)C1(Cl)C2(Cl)Cl (configuration not stated)
target-desc: Beta-2 adrenergic receptor (Homo sapiens) (UniProt P07550)
endpoint-value: inactive

molecule: Cc1ccccc1N
target-desc: Beta-2 adrenergic receptor (Homo sapiens) (UniProt P07550)
endpoint-value: inactive

molecule: CCC(=O)OC1(c2ccccc2)CCN(C)CC1
target-desc: Beta-2 adrenergic receptor (Homo sapiens) (UniProt P07550)
endpoint-value: inactive

molecule: CCCC1COC(Cn2cncn2)(c2ccc(Cl)cc2Cl)O1 (configuration not stated)
target-desc: Beta-2 adrenergic receptor (Homo sapiens) (UniProt P07550)
endpoint-value: inactive

molecule: O=C(O)C(F)(F)C(F)(F)C(F)(F)C(F)(F)C(F)(F)C(F)(F)F
target-desc: Beta-2 adrenergic receptor (Homo sapiens) (UniProt P07550)
endpoint-value: inactive

molecule: CCCC1CCCCN1 (configuration not stated)
target-desc: Beta-2 adrenergic receptor (Homo sapiens) (UniProt P07550)
endpoint-value: inactive

molecule: CC(C)(Cl)Cl
target-desc: Beta-2 adrenergic receptor (Homo sapiens) (UniProt P07550)
endpoint-value: inactive

molecule: COC(=O)NS(=O)(=O)c1ccc(N)cc1
target-desc: Beta-2 adrenergic receptor (Homo sapiens) (UniProt P07550)
endpoint-value: inactive

molecule: CC(C)=CC1C(C(=O)OCc2cccc(Oc3ccccc3)c2)C1(C)C (configuration not stated)
target-desc: Beta-2 adrenergic receptor (Homo sapiens) (UniProt P07550)
endpoint-value: inactive

molecule: Cc1ccccc1O
target-desc: Beta-2 adrenergic receptor (Homo sapiens) (UniProt P07550)
endpoint-value: inactive

molecule: CCCC[n+]1ccc(C)cc1
target-desc: Beta-2 adrenergic receptor (Homo sapiens) (UniProt P07550)
endpoint-value: inactive

molecule: C[C@]12CC[C@H]3[C@@H](CCC4=CC(=O)CC[C@@H]43)[C@@H]1CC[C@@H]2O
target-desc: Beta-2 adrenergic receptor (Homo sapiens) (UniProt P07550)
endpoint-value: inactive

molecule: C=C1CC[C@@]2(O)[C@H]3Cc4ccc(O)c5c4[C@@]2(CCN3CC2CC2)[C@H]1O5
target-desc: Beta-2 adrenergic receptor (Homo sapiens) (UniProt P07550)
endpoint-value: inactive

molecule: Cc1cc(Cl)ccc1O
target-desc: Beta-2 adrenergic receptor (Homo sapiens) (UniProt P07550)
endpoint-value: inactive

molecule: CC(=O)C=C(C)C
target-desc: Beta-2 adrenergic receptor (Homo sapiens) (UniProt P07550)
endpoint-value: inactive

molecule: CC(C)(C)C(O)(CCc1ccc(Cl)cc1)Cn1cncn1 (configuration not stated)
target-desc: Beta-2 adrenergic receptor (Homo sapiens) (UniProt P07550)
endpoint-value: inactive

molecule: Sc1ccccc1
target-desc: Beta-2 adrenergic receptor (Homo sapiens) (UniProt P07550)
endpoint-value: inactive

molecule: COC(=O)Nc1cccc(OC(=O)Nc2cccc(C)c2)c1
target-desc: Beta-2 adrenergic receptor (Homo sapiens) (UniProt P07550)
endpoint-value: inactive

molecule: CCOP(=O)(O)OCC (tested in a mixture with another compound)
target-desc: Beta-2 adrenergic receptor (Homo sapiens) (UniProt P07550)
endpoint-value: inactive

molecule: NNC(=S)NN
target-desc: Beta-2 adrenergic receptor (Homo sapiens) (UniProt P07550)
endpoint-value: inactive

molecule: COP(=S)(OC)Oc1ccc([N+](=O)[O-])cc1
target-desc: Beta-2 adrenergic receptor (Homo sapiens) (UniProt P07550)
endpoint-value: inactive

molecule: COP(=O)(O)OC
target-desc: Beta-2 adrenergic receptor (Homo sapiens) (UniProt P07550)
endpoint-value: inactive

molecule: CCCCCCCCCCCCOS(=O)(=O)O
target-desc: Beta-2 adrenergic receptor (Homo sapiens) (UniProt P07550)
endpoint-value: inactive

molecule: Oc1ccccc1Cl
target-desc: Beta-2 adrenergic receptor (Homo sapiens) (UniProt P07550)
endpoint-value: inactive
